Molecular target: neuronal nicotinic cholinergic channel receptors
Assay: [3H]-cytisine displacement binding to neuronal nicotinic cholinergic channel receptors
Type: rat (crude synaptic membranes from whole rat brain)
Conditions: read-out: Receptor Binding Ki
Experimental: B. Protocol For Determination of Nicotinic Cholinergic Channel Receptor Binding Potencies of Ligands Binding of [^3 H]-cytisine ([^3 H]-CYT) to nicotinic receptors was accomplished using crude synaptic membrane preparations from whole rat brain (Pabreza et al., Molecular Pharmaol., 1990, 39:9). Washed membranes were stored at -80° C. prior to use. […] The filters are counted in 4 mL of Ecolume® (ICN). […] Alternately, data were expressed as a percentage of the total specific binding.
Counter-ions that a name gives are not always drawn.
Overview of reported Ki across a group of molecules:

| molecule | Ki / nM |
| --- | --- |
| Brc1ccncc1OC[C@@H]1CCCN1 [Example 20, dihydrochloride] | 341 |
| C[C@H]1CC[C@@H](COc2cccnc2)N1C [Example 22, dihydrochloride] | 25 |
| CN1CC[C@H]1COc1ccc(Cl)nn1 [Example 13, oxalate] | 65 |
| CN1CCCCC1COc1cccnc1 (stereo not drawn) [Example 26, oxalate salt] | 76 |
| Cc1ccc(OC[C@H]2CCCN2)cn1.Cl.Cl [Example 37, dihydrochloride] | 0.5 |
| CN1C[C@H](O)C[C@H]1COc1cccnc1 [Example 23, dihydrochloride] | 78.3 |
| CC[C@@H]1C[C@@H](COc2cccnc2)N(C)C1 [Example 25, dihydrochloride] | 14.7 |
| CN1CCC[C@H]1COc1ccc(Cl)nn1 | 29 |
| Cc1ccc(OC[C@@H]2CCCN2)cn1.Cl.Cl [Example 18, dihydrochloride] | 0.28 |

###

Overview of reported Ki across a group of compounds:
Target: neuronal nicotinic cholinergic channel receptors
Assay: [3H]-cytisine displacement binding to neuronal nicotinic cholinergic channel receptors
Format: rat (crude synaptic membranes from whole rat brain)
Settings: Table 1; [3H]-cytisine 1.25 nM, 60 min at 4° C.; read-out: Receptor Binding Ki
Protocol: B. Protocol For Determination of Nicotinic Cholinergic Channel Receptor Binding Potencies of Ligands Binding of [^3 H]-cytisine ([^3 H]-CYT) to nicotinic receptors was accomplished using crude synaptic membrane preparations from whole rat brain (Pabreza et al., Molecular Pharmaol., 1990, 39:9). Washed membranes were stored at -80° C. prior to use. […] The filters are counted in 4 mL of Ecolume® (ICN). […] Alternately, data were expressed as a percentage of the total specific binding.
Structures can show the parent of a compound that is named as a salt.

| compound | system-name | Ki (nM) |
| --- | --- | --- |
| CN1CC[C@H]1COc1cnccn1.Cl.Cl [Example 8, dihydrochloride] | neuronal nicotinic cholinergic channel receptors | 33 |
| Cl.Cl.c1cncc(OC[C@@H]2CCN2)c1 [Example 9, dihydrochloride] | neuronal nicotinic cholinergic channel receptors | 0.05 |
| Cl.Cl.Clc1cncc(OC[C@H]2CCCN2)c1 [Example 33, dihydrochloride] | neuronal nicotinic cholinergic channel receptors | 0.2 |
| Cc1ccncc1OC[C@@H]1CCCN1C.Cl.Cl [Example 46, dihydrochloride] | neuronal nicotinic cholinergic channel receptors | 4 |
| Cc1ccc(OC[C@@H]2CCN2C)cn1.Cl.Cl [Example 59, dihydrochloride] | neuronal nicotinic cholinergic channel receptors | 4.5 |
| CN1CCC[C@@H]1COc1cccnc1.Cl [Example 1, hydrochloride] | neuronal nicotinic cholinergic channel receptors | 23 |
| CN1CCC[C@H]1COc1cnc2ccccc2c1.Cl [Example 31, hydrochloride] | neuronal nicotinic cholinergic channel receptors | 0.7 |
| Clc1ccc(OC[C@@H]2CCN2)cn1 [Example 52, dihydrochloride] | neuronal nicotinic cholinergic channel receptors | 0.04 |

###

target: neuronal nicotinic cholinergic channel receptors; assay: [3H]-cytisine displacement binding to neuronal nicotinic cholinergic channel receptors; format: rat (crude synaptic membranes from whole rat brain); conditions: read-out: Receptor Binding Ki
pKi: −log10 of the molar value. Where a name gives a salt, the structure may show the parent alone.
Label Yes when pKi is at or above 8; otherwise label No.

| compound | category |
| --- | --- |
| Cc1ccc(OC[C@@H]2CCCN2C)cn1.Cl.Cl [Example 19, dihydrochloride] | Yes |
| CN1CCC[C@H]1COc1cncc2ccccc12 [Example 32, hydrochloride] | No |
| CN1CCC[C@H]1COc1cncc(Br)c1 [Example 28, dihydrochloride] | Yes |
| C[C@@H]1C[C@@H](COc2cccnc2)N(C)C1 [Example 24, dihydrochloride] | Yes |
| CN1CCC[C@@H]1COc1ccc(Cl)nn1 [Example 5, oxalate] | No |
| CN1CCC[C@H]1COc1cnccc1Br [Example 21, dihydrochloride] | No |

###

Molecular target: neuronal nicotinic cholinergic channel receptors
Experiment: [3H]-cytisine displacement binding to neuronal nicotinic cholinergic channel receptors
Format: rat (crude synaptic membranes from whole rat brain)
Details: Table 2; [3H]-cytisine 1.25 nM, 60 min at 4° C.; read-out: Receptor Binding Ki
Protocol: B. Protocol For Determination of Nicotinic Cholinergic Channel Receptor Binding Potencies of Ligands Binding of [^3 H]-cytisine ([^3 H]-CYT) to nicotinic receptors was accomplished using crude synaptic membrane preparations from whole rat brain (Pabreza et al., Molecular Pharmaol., 1990, 39:9). Washed membranes were stored at -80° C. prior to use. […] The filters are counted in 4 mL of Ecolume® (ICN). […] Alternately, data were expressed as a percentage of the total specific binding.
pKi: −log10 of the molar value. Where a name gives a salt, the structure may show the parent alone.
Overview of reported pKi across a group of compounds:
measurement-kind: pKi

| compound | measurement-kind | numeric-value |
| --- | --- | --- |
| CN1CCC[C@H]1COc1nccs1 [Example 11, hydrochloride] | pKi | 6.96 |
| CCC[C@H]1CCN[C@H]1COc1cccnc1 (relative stereo) [Example 61, dihydrochloride] | pKi | 8.89 |
| CN1C[C@@H](CO)C[C@H]1COc1cccnc1 [Example 48, dihydrochloride] | pKi | 7.52 |
| Clc1cc(OC[C@@H]2CCN2)cnc1Cl [Example 109, hydrochloride] | pKi | 10.62 |
| FC(F)(F)c1cncc(OC[C@@H]2CCCN2)c1 [Example 66, dihydrochloride] | pKi | 8.40 |
| CCc1cncc(OC[C@@H]2CCCN2C)c1 [Example 75, dihydrochloride] | pKi | 9.49 |
| CN1CCC[C@@H]1COc1cncc(C(F)(F)F)c1 [Example 54, hydrochloride] | pKi | 7.11 |
| CN1CC[C@H]1COc1cncc(Cl)c1 [Example 80, dihydrochloride] | pKi | 8.72 |
| Cc1cncc(OC[C@@H]2CCCN2C)c1 [Example 73, dihydrochloride] | pKi | 9.32 |
| Clc1ccc(OC[C@@H]2CCN2)nn1 [Example 85, hydrochloride] | pKi | 7.80 |
| C=CCN1CCC[C@H]1COc1cncc(Br)c1 [Example 57, dihydrochloride] | pKi | 7.77 |
| CN1CC[C@@H]1COc1cccnc1 [Example 63, dihydrochloride] | pKi | 8.85 |
| Cc1ncccc1OC[C@@H]1CCN1C [Example 30, dihydrochloride] | pKi | 6.89 |
| CN1CCC[C@H]1COc1cncc([N+](=O)[O-])c1 [Example 108, hydrochloride] | pKi | 8.31 |
| CO[C@H]1CN[C@H](COc2cccnc2)C1 [Example 74, dihydrochloride] | pKi | 7.23 |
| CN1CCC[C@@H]1COc1ccc(Cl)nc1 [Example 51, dihydrochloride] | pKi | 8.35 |
| CN1CCC[C@@H]1COc1cncc(Br)c1 [Example 56, hydrochloride] | pKi | 8.04 |
| CCCc1cncc(OC[C@@H]2CCCN2C)c1 [Example 77, dihydrochloride] | pKi | 10.00 |
| CN1CC[C@H]1COc1cncc(Br)c1 [Example 68, dihydrochloride] | pKi | 8.35 |

###

Molecular target: neuronal nicotinic cholinergic channel receptors
Test: [3H]-cytisine displacement binding to neuronal nicotinic cholinergic channel receptors
Assay type: rat (crude synaptic membranes from whole rat brain)
Conditions: Table 2; [3H]-cytisine 1.25 nM, 60 min at 4° C.; dihydrochloride; read-out: Receptor Binding Ki
Procedure: B. Protocol For Determination of Nicotinic Cholinergic Channel Receptor Binding Potencies of Ligands Binding of [^3 H]-cytisine ([^3 H]-CYT) to nicotinic receptors was accomplished using crude synaptic membrane preparations from whole rat brain (Pabreza et al., Molecular Pharmaol., 1990, 39:9). Washed membranes were stored at -80° C. prior to use. […] The filters are counted in 4 mL of Ecolume® (ICN). […] Alternately, data were expressed as a percentage of the total specific binding.
pKi: −log10 of the molar value. Structures can show the parent of a compound that is named as a salt.

| compound | pKi |
| --- | --- |
| Cc1ncccc1OC[C@H]1CCN1 [Example 41, dihydrochloride] | 8.00 |
| Cc1ncccc1OC[C@H]1CCN1 [Example 81, dihydrochloride] | 8.03 |

###

target: neuronal nicotinic cholinergic channel receptors; assay: [3H]-cytisine displacement binding to neuronal nicotinic cholinergic channel receptors; type: rat (crude synaptic membranes from whole rat brain); conditions: Table 2; [3H]-cytisine 1.25 nM, 60 min at 4° C.; read-out: Receptor Binding Ki
Where a name gives a salt, the structure may show the parent alone.
Overview of reported log10(Ki) across a group of molecules:
measurement-kind: log10(Ki) (log10 of the value in nM)

| molecule | measurement-kind | numeric-value |
| --- | --- | --- |
| CN1CCC[C@H]1COc1cccnn1 [Example 79, dihydrochloride] | log10(Ki) | 1.63 |
| Brc1cncc(OC[C@@H]2CCCN2)c1 [Example 65, dihydrochloride] | log10(Ki) | -0.22 |
| Clc1ccc(OC[C@@H]2CCCN2)cn1 [Example 45, dihydrochloride] | log10(Ki) | -1.12 |
| CN1CCC[C@H]1COc1cncnc1 [Example 84, dihydrochloride] | log10(Ki) | 0.38 |
| C[C@@H]1CC[C@@H](COc2cccnc2)N1C [Example 89, hydrochloride] | log10(Ki) | 1.96 |
| CN1C[C@H](CC#N)C[C@H]1COc1cccnc1 [Example 50, dihydrochloride] | log10(Ki) | 0.75 |
| Cc1ncccc1OC[C@@H]1CCCN1C [Example 53, dihydrochloride] | log10(Ki) | 1.45 |
| Clc1cncc(OC[C@@H]2CCCN2)c1 [Example 15, dihydrochloride] | log10(Ki) | -0.89 |
| CN1CCC[C@H]1COc1cncc(C(F)(F)F)c1 [Example 44, dihydrochloride] | log10(Ki) | 0.26 |
| CN1CCCC[C@@H]1COc1cccnc1 [Example 42, dihydrochloride] | log10(Ki) | 2.53 |
| CN1CCC[C@H]1COc1cnccn1 [Example 3, fumarate] | log10(Ki) | 1.30 |
| Cc1ccc(OC[C@@H]2CCN2)cn1 [Example 40, dihydrochloride] | log10(Ki) | -1.30 |
| c1cncc(OC[C@H]2CCN2)c1 [Example 62, dihydrochloride] | log10(Ki) | -0.30 |
| CN1C[C@@H](C#N)C[C@H]1COc1cccnc1 [Example 90, dihydrochloride] | log10(Ki) | 1.26 |
| CO[C@@H]1C[C@@H](COc2cccnc2)N(C)C1 [Example 47, dihydrochloride] | log10(Ki) | 1.36 |
| CN1CCC[C@H]1CCOc1ccc(Cl)nc1 [Example 105, dihydrochloride] | log10(Ki) | 1.52 |
| Clc1ccc(OC[C@H]2CCCN2)cn1 [Example 58, hydrochloride] | log10(Ki) | 0.72 |
| CN1C[C@H](CO)C[C@H]1COc1cccnc1 [Example 83, dihydrochloride] | log10(Ki) | 1.86 |
| CN1CCC[C@H]1CCOc1cccnc1 [Example 103, dihydrochloride] | log10(Ki) | 1.26 |
